I'd be grateful if you could share measured binding signal for these entries.
# tested.system: T1, UNK ZnF1-3 (human, UniProt Q9C0B0 31-174)
# T1 sequence: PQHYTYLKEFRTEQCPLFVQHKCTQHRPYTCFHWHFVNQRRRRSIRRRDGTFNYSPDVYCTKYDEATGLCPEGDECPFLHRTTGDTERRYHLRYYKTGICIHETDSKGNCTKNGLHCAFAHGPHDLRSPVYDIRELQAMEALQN
# assay.overview: nsRBNS (natural sequence RNA bind-n-seq); RBNS binding buffer (assumed for nsRBNS): 25 mM Tris pH 7.5, 150 mM KCl, 3 mM MgCl2, 0.01% Triton X-100, 500 ug/ml BSA, 20 U/ml SUPERase-In, 4 C; UNK is unkempt and MSI1 is Musashi-1; names of the RNAs are library labels; protein concentration not given here; high values mean tight binding
The full ranking holds about 24,000 sequences; the median of “enrichment r” is about 0.99, and the highest 2% start at about 3.7. The entries come from a sample that favours the highest values as a whole.
Return type: number; implicit unit enrichment R.

Short answer for chr14:63765801:63765802:-_ENSMUSG00000021273_ENSMUST00000054963|mus_mus|motif|central (ssRNA) RNA: GGGAGUUCUACAGUCCGACGAUCCUGCUUGGUUUUGCUUGAUGAUGGGUCUGAGUUGGGGAUCCGGUGAUAAAUCUCUUCGGUGUACUGGUAUAUGAUAGCUUUGACGGCAGGCAUGUUGGUGGCAUCCAUCAUGAGGGUGACCAACAGAGGAUUGAGCAUCA : binding signal was 1.69

Please fill in: binding signal reported for 62932219_62936930_2744_CDS_ENSG00000061987_ENST00000546600|human|control|control (ssRNA) RNA: GGGAGUUCUACAGUCCGACGAUCCAUAUUAACUAAACCAGUUUCUAACAAUUUGGCAACAGCAAAAAGAGAUGGUUCCUUAUUAUUUCCAUAGGCCAUAUCCAUUGCUUCUAGAGACAAGGAGCAAAGUGCAUUUAUUAAAUGCAACAGAGGAUUGAGCAUCA = 1.11

// binding signal value for chr6:35837335:35837336:-_ENSG00000096063_ENST00000361690|hu_mus|FALSE|FALSE (ssRNA) RNA: GGGAGUUCUACAGUCCGACGAUCGGGCUCCUGCUCAUCCCCAGAAGGUGUAUCUGCCCGAAUGCUCUCCUCCAGCUGGGUGAUGUCCUGUCGGGUGAGUGACUGCUCUGCAGAGGAUUGGCACACCAUGGUCUCAGAGGCCGUCAACAGAGGAUUGAGCAUCA : 3.58
